Test: in vivo
Conditions: Balb/c nu/nu, mouse, liver, 48 pmol, total radioactivity
Value Kind: tissue uptake at 2 h (%ID/g)

>>> endpoint_value("CC1=NNC(c2ccc(CNC(=O)c3ccc(F)nc3)cc2)=C2CCC[C@H](OC(=O)NCCOCCOCCC(=O)N[C@H](Cc3ccccc3)C(=O)N[C@@H](CCC(N)=O)C(=O)N[C@@H](Cc3c[nH]c4ccccc34)C(=O)N[C@@H](C)C(=O)N[C@H](C(=O)NCC(=O)N[C@@H](Cc3c[nH]cn3)C(=O)N[C@@H](CC(C)C)[C@@H](O)CC(=O)N[C@@H](CC(C)C)C(N)=O)C(C)C)CCC12 (stereo partly shown)")
7

Data origin: paper PMC11947346
